Record form. Attribute: Ki. Fill in for each entry.
Answer format: numeric, nM implied, no suffix.

Task: Write down the reported Ki of "CNC(=O)[C@@]12C[C@@H]1[C@@H](n1cnc3c(NOC)nc(Cl)nc31)[C@H](O)[C@@H]2O" , test system: Adenosine receptor A3 (Homo sapiens, UniProt P0DMS8).
Sequence (P0DMS8 whole entry): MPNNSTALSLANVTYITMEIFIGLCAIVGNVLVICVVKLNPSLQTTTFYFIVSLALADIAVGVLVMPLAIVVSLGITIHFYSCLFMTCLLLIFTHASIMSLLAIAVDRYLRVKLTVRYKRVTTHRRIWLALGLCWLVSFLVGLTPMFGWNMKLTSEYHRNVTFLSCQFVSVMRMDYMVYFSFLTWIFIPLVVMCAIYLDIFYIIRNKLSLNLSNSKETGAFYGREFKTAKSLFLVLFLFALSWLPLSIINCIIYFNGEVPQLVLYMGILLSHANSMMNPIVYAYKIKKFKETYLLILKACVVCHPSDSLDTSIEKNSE
Result: 149

Task: Write down the reported Ki of "CNC(=O)[C@@]12C[C@@H]1[C@@H](n1cnc3c(NCc4cccc(C#CCCCC(=O)NCCN)c4)nc(Cl)nc31)[C@H](O)[C@@H]2O" , test system: Adenosine receptor A3 (Homo sapiens, UniProt P0DMS8).
Result: 5.21

Task: Write down the reported Ki of "CNC(=O)[C@@]12C[C@@H]1[C@@H](n1cnc3c(NCc4cccc(Cl)c4)nc(C#CCCCC(=O)NCCN)nc31)[C@H](O)[C@@H]2O" , test system: Adenosine receptor A3 (Homo sapiens, UniProt P0DMS8).
Result: 2.17

Task: Write down the reported Ki of "CNC(=O)[C@@]12C[C@@H]1[C@@H](n1cnc3c(NCc4cccc(Cl)c4)nc(C#C[Si](C)(C)C)nc31)[C@H](O)[C@@H]2O" , test system: Adenosine receptor A3 (Homo sapiens, UniProt P0DMS8).
Result: 0.98

Data provenance: ChEMBL document CHEMBL1145629
